- Test system: Uromyces Appendiculatus
- protocolText: Preventive fungicidal activity (5 days) against Uromyces Appendiculatus on beans
- Format: in vivo
- testParameters: 125 ppm
measureName: Activity P5

molecule: CCCCCCSc1nc(C)c(N=CN(C)CC)cc1C [Compound 17]
Activity P5: 100%

Return reported Activity P5 values for all items listed beneath this line.
1. CCN(C)C=Nc1cc(C)c(SCC2CCCCC2)nc1C [Compound 40]
2. CCN(C)C=Nc1cc(Br)c(SCc2cccc(C(F)(F)F)c2)nc1C [Compound 1]
3. CCN(C)C=Nc1cc(C)c(SCCC(C)C)nc1C [Compound 2]
4. CCN(C)C=Nc1cc(C)c(SCc2c(F)cccc2F)nc1C [Compound 39]
5. CCN(C)C=Nc1cc(C)c(SCc2cccc(C(F)(F)F)c2)nc1C [Compound 3]

["100%", "100%", "100%", "100%", "100%"]
